test: protein stability index of a GFP-peptide fusion (yeast GPS) (PSI 1-4); higher = more stable; sorted into four equal gates, so the index is relative within each strain; details: pdr5∆
parameter: protein stability index
Numbers only.

chain-sequence | readout-value
VEKGVNPTKSKEILDNI [ECM29] | 3.5
ERLMSRPFGVALLIAGH [PUP2] | 3.08
GSKLEDMSKILVDQGFN [RET1] | 3.2
WSEISNELPDIEALYDD [RPN2] | 3.57
KFILSGFIFTSMILEAI [RRI2] | 1.2
GDFGGWFCPCHGSHYDI [RIP1] | 3.11

# map each sequence to its protein stability index
1. KYRPETAAEKKERLTKE [RPL8A]
2. ASPSAHTSSSDGNNEIF [RPN4]

RESULT:
2.76
2.73

Dear colleague, could you send me protein stability index for each of the items below? Thanks.
1. GSMFSGDNTSDVDMEDR [RRI1]
2. ANPKKLALMTAHSLSPK [CDC53]
3. AAASLPSKKLKTEDGFV [RPC82]
4. AKIDVMLTIARLGFFYN [RPN7]
5. KRRFGELMDRTGLKLYS [RPP1]
6. NLMGNRNNHNSNTSTSK [SNF12]
7. IFSFHQDSIFQRIIADL [SRB8]
8. RHLVNRGREEAASFKKL [PRE10]

RESULT:
[2.55, 2.78, 3.09, 2.89, 2.98, 3.17, 2.06, 3.2]

---

test: protein stability index of a GFP-peptide fusion (yeast GPS) (PSI 1-4); higher = more stable; sorted into four equal gates, so the index is relative within each strain; settings: ubr1∆
Binary classification by protein stability index, with 3 as an inclusive lower bound for true; all other cases are false.

chain-sequence | label-value
QLFNWCLMRSLHKLELK [DSN1] | false
YVNDVAIYNNPTRIRTK [RRI2] | false

QUERY: Hi team, for NYNHLLPTRYTLDVEAF [RPL27A] , is the recorded protein stability index at or above 3?
RESULT: false

QUERY: Determine whether this sequence has protein stability index no lower than 3: PLPVETPRDRRKSVFAP [SSN2]
RESULT: false

QUERY: Given the entry LDNSKMDYHFIFSYLQF [RGR1] , answer whether its protein stability index meets or surpasses 3.
RESULT: false

---

test: protein stability index of a GFP-peptide fusion (yeast GPS) (PSI 1-4); higher = more stable; sorted into four equal gates, so the index is relative within each strain; settings: ubr1∆
parameter: protein stability index
Give bare numbers.

Below, 5 sequences whose answers are already recorded.
chain-sequence | protein stability index
SAIDVLDPLTKDPVDFV [RPN2] | 3.12
SNGEFIPHIFYSLHQIR [CSE2] | 2.34
GDYGSAKCNSLLQLKYF [POP5] | 2.59
CASIPIAIIKDTSDIIV [RRP46] | 1.6
AARHRARFRSIHILKVA [RPL20A] | 1.1

Look at each sequence and report its protein stability index.
1. HFNGIRRLDALVEKVYA [ITC1]
2. FKYVEDRFPLKLREPVA [ITC1]
3. QINPTRETNDDIWRVAG [SNF2]

RESULT:
2.95
2.73
2.14

---

Give measured protein stability index for each item. Keep answers brief.
assay: protein stability index of a GFP-peptide fusion (yeast GPS) (PSI 1-4); higher = more stable; sorted into four equal gates, so the index is relative within each strain; details: san1∆
Answers are plain numbers.

chain-sequence | protein stability index
LETLFNRWHSESWANQL [FAS2] | 2.87
ESGIKPYFEQKIQETEL [RPT6] | 2.64
MQENDKINQERLERRIN [CSI1] | 1.26
RSEKSTTNAQTKKLIQK [SRP54] | 2.77
HRSGKIVVQLNGRLNKC [RPS22A] | 2.98
IPAAGNNRSVSMQTIAE [SRB5] | 3.22
SLNEKNALHTERLHELK [SMC1] | 2.89
LRLRISRKRNEEEDAKN [RPL31A] | 3.35

Dear colleague, could you send me protein stability index for each of the items below? Thanks.
1. YPDLQPFVLAENMWPFS [CDC53]
2. DLNPLKTLNLFKQIKSA [RPO31]
3. YACISSRPGQSGRCDGY [RPS8A]
4. VDNTTEQSNSRKRTRSE [YCG1]
5. TTSVDVMLKGIVTALLE [SRP54]
6. DSNTTEILTSVDVLGTH [SIR4]
7. PGPRLLYENIASSPIIL [RPN10]

RESULT:
2.01
2.62
3.35
2.83
1.18
2.93
2.2

---

test: protein stability index of a GFP-peptide fusion (yeast GPS) (PSI 1-4); higher = more stable; sorted into four equal gates, so the index is relative within each strain; details: ubr1∆
Kindly state protein stability index for each of the entries shown.
Numbers only.

Consider the following illustrative entries.
chain-sequence | readout-value
AVVVRGRYAGKKVVIVK [RPL27A] | 2.81
KERYTVEDELTESIALS [RRI1] | 3.23
SALIENNLFRIIAELSF [YJL039C/NUP192] | 2.53
ITKVTENLFSKEEVCQG [YMR129W/POM152] | 3.06
KNIPKTRYNRDYMLSMA [SNU114] | 1.87

Please state, for each entry, its recorded protein stability index.
1. SSKTRNVLNRIQELEDQ [ITC1]
2. RFQKCFPPGVIGIDEGS [RPC40]
3. IEVTIGIDQYSFNVKEN [AAR2]
4. HKLDLAKRNLDANPSSQ [SMC2]
5. PSIVFIDEIDAIGTKRY [RPT2]

RESULT:
[1.18, 2.43, 2.76, 1.66, 2.92]

Provide the reported protein stability index of each entry below, same order.
1. VTNFNSTNEDQNNSKHT [SRB5]
2. RDYSKEILGINLANEQP [SIR4]
3. ESKLRDDLERLKKIRAH [RPS18A]
4. VKRYRLAPTQLSAEYLV [SIN4]

RESULT:
2.71
3.02
3.3
2.71

---

test: protein stability index of a GFP-peptide fusion (yeast GPS) (PSI 1-4); higher = more stable; sorted into four equal gates, so the index is relative within each strain; details: pdr5∆
I'd be grateful if you could share measured protein stability index for these entries.
Give bare numbers.

chain-sequence | protein stability index
ELEQLSSEALEAARICA [RPL10] | 1.35

# per-item lookup of protein stability index; items listed below
1. ANNGAAFSPLTTTRIQS [MED2]
2. EFGADWYKVAKNVGNKS [SWI3]
3. LKNTKYFQQTTIDWVEA [PRP8]
4. HVTQEDFELAVGKVMNK [RPT6]
5. NAANVPVENIWADIFAK [RPP1A]

RESULT:
[2.91, 3.34, 2.96, 2.82, 2.51]

// batch mode: one protein stability index value per listed entry
1. ESGSTPISISNAPTFNP [YAR002W/NUP60]
2. MKQYSYLMDSKNVRTRI [RRI1]
3. MAFQKDAKSSAYSSRFQ [RPL5]

RESULT:
[2.64, 2.6, 2.89]

Batch request: protein stability index per item, same order as input.
1. NPRKRAIPNSIIKRSNG [YMR153W/NUP53]
2. KEENDEGLSAQIAFDLV [RPN2]
3. LTADARSMIEHARTAAV [PUP2]

RESULT:
[2.7, 3.56, 2.87]

Here are 4 sequences. What values of protein stability index were reported for them?
1. FLDGIYVSHKGFITEDL [RPL9A]
2. AIPNPEDVVAISSRTFG [RPS0A]
3. KSFYSTATGAASKSGKL [CYT1]
4. YRRALQSSESFDDSDIT [YML103C/NUP188]

RESULT:
2.62
2.94
2.62
2.36

---

assay: protein stability index of a GFP-peptide fusion (yeast GPS) (PSI 1-4); higher = more stable; sorted into four equal gates, so the index is relative within each strain; conditions: san1∆
Hi there, I'd appreciate the recorded protein stability index for every entry that follows.
Give bare numbers.

chain-sequence | protein stability index
IMKNKDFILSLLHHVSE [YJL039C/NUP192] | 1.92
PDLDTECFISMQSTSPA [SWI1] | 2.32
QLDEFKNKYLKDVLAQT [SWP82] | 2.4
FLLRRVKADVEKSLLPK [ISW2] | 3.02
FNSFRRFKSQFLYVLIP [QCR8] | 1.56
ISTAKAWGALITTFVKR [YML103C/NUP188] | 1.64
KIFTPNLLQISAAELER [SNF5] | 1.76
LQRDLFIRLPHWPLNWY [RGR1] | 2.11

Dear colleague, could you please provide protein stability index for the sequences listed below?
1. MVATVKRTIRIKTQQHI [TAF14]
2. KKVLEIDFFKTDDSFED [BRN1]
3. DQTFPINCNKETIENVK [ECM29]

RESULT:
1. 1.53
2. 2.46
3. 3.08

Kindly give each listed record's protein stability index.
1. EQKLIDQHVINILWAIY [YCS4]
2. KERYTVEDELTESIALS [RRI1]
3. ESVLPAARYDYAVAEQC [QCR2]
4. VPFIIAAMVIMHLMALH [COB]
5. TRYMFQRDFRKHGAVHL [RPL21A]
6. HKSGKLSVKIGNVVMDI [RPC53]
7. HSRILPKKALKVKAGVR [RRP43]

RESULT:
1: 1.93; 2: 3.11; 3: 2.97; 4: 1.79; 5: 2.33; 6: 1.07; 7: 1.57

Fill in protein stability index for each of the 7 sequences listed.
1. TKEELESDGRMFIEEPT [SRP54]
2. DAPFNKVVLKALFLSKI [RPL18A]
3. NVVNYLSINKNFINQED [RPC17]
4. ENLPGLSISVAAEPMDS [SNU114]
5. EGQLKPGDGSSYINVTF [RPC25]
6. ISNVIKPNQTIMVLDAS [SRP54]
7. KQRKNPRRIAWTVLFRK [RPL24A]

RESULT:
[2.96, 1.25, 1.55, 2.83, 2.77, 2.83, 1.41]

I'm hoping you can list protein stability index for every sequence here, please.
1. NAKKRVFKTHSYRGVDL [RPS15]
2. ETGYMSRRLMKSLEDLS [RPO31]
3. DNIDEKVVKAIRIYFTE [NUT1]
4. FNYVQECPAIPIFNYIF [YJL039C/NUP192]
5. AMNDKDLTMGQVGERIK [RPO21]
6. PNADDIRDSIPQMDSFD [DIS3]

RESULT:
1: 3.16; 2: 3.02; 3: 3.04; 4: 1.88; 5: 2.82; 6: 3.14

The values you see were collected from the supplement of paper PMC9732359.
